Values compiled from ChEMBL document CHEMBL3396989.

Molecular target: Mitogen-activated protein kinase 1 (Homo sapiens)
Assay: Inhibition of non-activated Erk2 (unknown origin) using activating Mek1 and peptide substrate by coupled Erk2 assay
So basically: is IC50 under 70 nM? Then met. Not under? Then not met.

| test.smiles | assigned.class |
| --- | --- |
| O=C(Nc1ccc(O)c(Cl)c1)[C@@H]1CCN(CC(=O)N2CCN(c3ccc(-c4cccs4)cc3)CC2)C1 | not met |
| O=C(Nc1ccc(O)c(Cl)c1)[C@@H]1CCN(CC(=O)N2CCN(c3ccc(-c4ccccc4F)cc3)CC2)C1 | not met |
| O=C(Nc1ccc(O)c(Cl)c1)[C@@H]1CCN(CC(=O)N2CCN(c3ccc(-c4cccc(F)c4)cc3)CC2)C1 | not met |
| CC(C)c1cc(NC(=O)[C@@H]2CCN(CC(=O)N3CCN(c4ccc(-c5ncccn5)cc4)CC3)C2)ccc1O | not met |
| O=C(Nc1ccc(O)c(Cl)c1)[C@@H]1CCN(CC(=O)N2CCN(c3ccc(-c4ncccn4)cc3)CC2)C1 | met |
| O=C(Nc1ccc(O)c(Cl)c1)[C@@H]1CCN(CC(=O)N2CCN(c3ccc(-c4cncnc4)cc3)CC2)C1 | not met |
| O=C(Nc1ccc(O)c(C2CC2)c1)[C@@H]1CCN(CC(=O)N2CCN(c3ccc(-c4ncccn4)cc3)CC2)C1 | met |
| O=C(Nc1ccc(O)c(Cl)c1)[C@@H]1CCN(CC(=O)N2CCN(c3ccc(-c4nccs4)cc3)CC2)C1 | not met |
| COc1ccc(-c2ccc(N3CCN(C(=O)CN4CC[C@@H](C(=O)Nc5ccc(O)c(Cl)c5)C4)CC3)cc2)cc1 | not met |
| O=C(Nc1ccc(O)c(Cl)c1)[C@@H]1CCN(CC(=O)N2CCN(c3ccc(-c4cnco4)cc3)CC2)C1 | not met |
| O=C(Nc1ccc(O)c(Cl)c1)[C@@H]1CCN(CC(=O)N2CCN(c3ccc(-c4ccc(F)cc4)cc3)CC2)C1 | not met |
| CCc1cnc(-c2ccc(N3CCN(C(=O)CN4CC[C@@H](C(=O)Nc5ccc(O)c(Cl)c5)C4)CC3)cc2)nc1 | met |
| O=C(Nc1ccc(O)c(C(F)(F)F)c1)[C@@H]1CCN(CC(=O)N2CCN(c3ccc(-c4ncccn4)cc3)CC2)C1 | met |
| O=C(Nc1ccc(O)c(Cl)c1)[C@@H]1CCN(CC(=O)N2CCN(c3ccc(-c4ncc(F)cn4)cc3)CC2)C1 | met |
| O=C(Nc1ccc(O)c(Cl)c1)[C@@H]1CCN(CC(=O)N2CCN(c3ccc(-c4cnccn4)cc3)CC2)C1 | met |

---

Target: Mitogen-activated protein kinase 1 (Homo sapiens)
Assay: Inhibition of activated Erk2 (unknown origin) by biochemical assay
Details: read-out: IC50
experimental.readout: IC50 (nM)

| test.smiles | unit.abbreviation | reading |
| --- | --- | --- |
| CCc1cnc(-c2ccc(N3CCN(C(=O)CN4CC[C@@H](C(=O)Nc5ccc(O)c(Cl)c5)C4)CC3)cc2)nc1 | nM | 100 |
| O=C(Nc1ccc(O)c(F)c1)[C@@H]1CCN(CC(=O)N2CCN(c3ccc(-c4ncccn4)cc3)CC2)C1 | nM | 2670 |
| COc1ncc(-c2ccc(N3CCN(C(=O)CN4CC[C@@H](C(=O)Nc5ccc(O)c(Cl)c5)C4)CC3)cc2)cn1 | nM | 2670 |
| O=C(Nc1ccc(O)c(Cl)c1)[C@@H]1CCN(CC(=O)N2CCN(c3ccc(-c4nccs4)cc3)CC2)C1 | nM | 9340 |

---

Target: Mitogen-activated protein kinase 1 (Homo sapiens, UniProt P28482)
Sequence (P28482 whole entry): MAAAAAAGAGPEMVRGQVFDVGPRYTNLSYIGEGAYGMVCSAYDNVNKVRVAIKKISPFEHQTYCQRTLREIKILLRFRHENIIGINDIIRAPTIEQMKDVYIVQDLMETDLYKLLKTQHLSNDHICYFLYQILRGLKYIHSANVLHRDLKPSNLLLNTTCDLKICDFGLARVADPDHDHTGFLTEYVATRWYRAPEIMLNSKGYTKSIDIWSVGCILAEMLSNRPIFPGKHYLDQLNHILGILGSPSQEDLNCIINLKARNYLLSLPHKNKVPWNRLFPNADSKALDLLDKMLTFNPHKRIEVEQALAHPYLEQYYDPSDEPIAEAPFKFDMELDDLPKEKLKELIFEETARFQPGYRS
Assay: Binding affinity to non-phosphorylated Erk2 (unknown origin) by TdF assay

| compound | Kd |
| --- | --- |
| CC(=O)c1ccc(N2CCN(C(=O)CN3CCC(C(=O)Nc4ccc(O)cc4)C3)CC2)cc1 (stereo unspecified) | 1.06 µM |
